System: MS2 coat protein
Assay: apparent KD of MS2 coat protein; designed switch direction (-1 OFF switch, 1 ON switch): 1; higher = weaker reporter binding
Details: Eterna round: R95; input ligand: microRNA oligo, concentration not stated
Below, each entry is listed alongside its reported apparent KD of MS2 coat protein.

[
  {
    "query_sequence": "GAUAAACAUGAGGAUCACCCAUGUAAUAAUAUGGGAGGAUAUCAGAAUGUAUGUAUGUAAUGAGAAGGCCUAAAUG [Mat - Same State 1 - Mod of Eli - D73] (puzzle: Same State 1)",
    "system_name": "MS2 coat protein",
    "unit_of_measure": "nM",
    "apparent KD of MS2 coat protein": 425
  },
  {
    "query_sequence": "GGCUAUCGGCGUACCGAUAGCUGGUAUGUACAUGAGGAUCACCCAUGUCAUGUACAGGCUUUUUGCUCGUCUUAUUG [JL-shm-2.39 JL mod] (puzzle: Sensor for hsa-mir-208a)",
    "system_name": "MS2 coat protein",
    "unit_of_measure": "nM",
    "apparent KD of MS2 coat protein": 30.3
  },
  {
    "query_sequence": "AGUCCUGAAUAAAUUAAACAGAGACAUGUACAUGAGGAUCACCCAUGUCAUGUGCAAGUUUUUUGCUCGUCAUAUAA [Sensorship 17 - Jieux - Sensor for hsa-mir-208a] (puzzle: Sensor for hsa-mir-208a)",
    "system_name": "MS2 coat protein",
    "unit_of_measure": "nM",
    "apparent KD of MS2 coat protein": 10.7
  }
]
